# System: RARb:RXRa (NR concentration 270 nM, RXRa partner concentration 90 nM)
# test-method-notes: PBM binding z-score (relative to random genomic background probes); higher = stronger binding; sequences stand for … in GC…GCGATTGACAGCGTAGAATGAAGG
observable: PBM binding z-score
// return just the number, without any unit appended

Sample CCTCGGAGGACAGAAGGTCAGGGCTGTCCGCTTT — what was its PBM binding z-score?
3.47

Name the recorded PBM binding z-score for CAGCCTAGGTCAGTGCCAGTATAGGAGGAACGTT .
3.17

# get_value(readout='PBM binding z-score', item= CAAACTAGGTCTAGAGGTCAAAGTCCGCTTCCCG )
3.96

Any idea what its PBM binding z-score is? The sequence is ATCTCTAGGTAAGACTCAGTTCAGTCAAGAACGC
0.511

Look at this sequence and give its reported PBM binding z-score. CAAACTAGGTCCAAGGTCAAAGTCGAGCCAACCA
3.51

Quick check: PBM binding z-score of GTACCAAGGGGAATAGGTCGTTGATGAGTAGGCG ?
0.516

Entry under review: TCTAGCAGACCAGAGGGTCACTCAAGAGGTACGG . Reported PBM binding z-score?
1.81

Need PBM binding z-score, item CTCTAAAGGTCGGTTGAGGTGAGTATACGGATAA
3.31

Can you share its PBM binding z-score? I mean this sequence: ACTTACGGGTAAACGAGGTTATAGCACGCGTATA
0.846

Entry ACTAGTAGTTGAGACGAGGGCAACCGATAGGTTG has what PBM binding z-score?
0.978

Which PBM binding z-score reading was recorded for the sequence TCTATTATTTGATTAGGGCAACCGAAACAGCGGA ?
0.93

Form field: reported PBM binding z-score of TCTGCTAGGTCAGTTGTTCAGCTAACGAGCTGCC
3.15

Returns the measured PBM binding z-score for the input sequence. Input: CCGACTGGGGCATAAGGTTAACATAAGCCAGCCC
1.88

// returns reported PBM binding z-score for input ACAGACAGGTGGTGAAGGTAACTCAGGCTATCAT
-0.142

Looking for the measured PBM binding z-score of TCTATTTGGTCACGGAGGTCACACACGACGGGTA , can you help?
4.21

So what's the measured PBM binding z-score for this one? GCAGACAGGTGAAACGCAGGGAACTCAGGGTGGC
0.545

Record request: PBM binding z-score value, item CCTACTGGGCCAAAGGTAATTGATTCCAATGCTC
0.179

Entry under review: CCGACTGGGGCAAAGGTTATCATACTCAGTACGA . Reported PBM binding z-score?
2.08

Please report the recorded PBM binding z-score for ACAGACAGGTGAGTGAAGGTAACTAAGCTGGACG .
0.425

Request the reported PBM binding z-score associated with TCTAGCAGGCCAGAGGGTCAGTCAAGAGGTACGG
1.77

Field request: PBM binding z-score | item: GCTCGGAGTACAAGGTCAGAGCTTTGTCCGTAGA
3.07

Tell me the measured PBM binding z-score of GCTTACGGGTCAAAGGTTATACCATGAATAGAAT , please.
4.64

PBM binding z-score lookup needed for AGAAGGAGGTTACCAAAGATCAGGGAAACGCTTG , thanks.
1.89

Any idea what PBM binding z-score was measured for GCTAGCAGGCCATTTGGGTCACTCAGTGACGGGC ?
1.44

What value of measured PBM binding z-score is listed for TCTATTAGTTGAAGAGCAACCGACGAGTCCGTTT ?
0.129

I'd like to know its PBM binding z-score. The sequence in question is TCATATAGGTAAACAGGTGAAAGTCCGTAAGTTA
0.78
